system: SW620 MTHFD2-/-; test: cells; parameters: species or system HCT116, PA-TU-8988T; Resazurin cell viability dose-response in 384-well plates, fluorescence at 595 nm, logistic fit; details: Homo sapiens, SW-620, 96 h, Figure 1=6f; C=RPMI+GlutaMAX (5% dFBS, 1% P/S); D=Vehicle; 96 h viability, no metabolite rescue (vehicle); read-out: EC50 compound
property: EC50
I'd appreciate it if you included the unit after the number.

**Query** Value wanted: EC50 (SW620 MTHFD2-/-) of entry Cc1c(N2CCN(C)[C@@H](C)C2)ccc2c3c(c(=O)oc12)CN(C(=O)c1ccc(NS(C)(=O)=O)c(OC(F)(F)F)c1)CC3
**Result** 162 nM
